Entries annotated with measured Inhibition Rate of PAI-1 Activity (%)
# Tested On: recombinant human PAI-1 (Homo sapiens, UniProt P05121)
# Construct: purchased Molecular Innovations, Inc
# Sequence (P05121 24-402): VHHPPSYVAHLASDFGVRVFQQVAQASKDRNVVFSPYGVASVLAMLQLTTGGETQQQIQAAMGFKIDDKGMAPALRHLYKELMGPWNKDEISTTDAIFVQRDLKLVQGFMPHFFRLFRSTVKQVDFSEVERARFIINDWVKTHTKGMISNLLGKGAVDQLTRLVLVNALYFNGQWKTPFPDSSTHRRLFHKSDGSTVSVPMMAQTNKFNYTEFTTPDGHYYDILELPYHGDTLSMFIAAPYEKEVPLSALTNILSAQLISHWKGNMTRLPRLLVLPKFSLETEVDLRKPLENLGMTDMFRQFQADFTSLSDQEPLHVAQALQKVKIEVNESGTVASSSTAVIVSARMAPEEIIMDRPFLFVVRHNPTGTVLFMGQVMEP
# Procedure Details: Test Example 2: human PAI-1 inhibitory activity (tPA fluorogenic substrate, pH 7.4 HEPES buffer)
# Assay type: biochemical
# Applied Conditions: human PAI-1; compound concentration 3 μM

Some compounds with known Inhibition Rate of PAI-1 Activity (%) results, for comparison:
>  <Compound>
CCCCCOc1ccc(-c2ccc(OC(F)(F)F)cc2)cc1CN(CC(=O)O)c1ccc(C(C)(C)C)cc1

>  <Inhibition Rate of PAI-1 Activity (%)>
98%

$$$$
>  <Compound>
CC(C)(C)c1ccc(Oc2cc(-c3ccc(C(C)(C)C)cc3)ccc2OCC(=O)O)cc1

>  <Inhibition Rate of PAI-1 Activity (%)>
>99%

$$$$
>  <Compound>
CCCCCN(C(=O)C(=O)O)c1cc(-c2ccc(OC(F)(F)F)cc2)ccc1OCCCOc1ccccc1

>  <Inhibition Rate of PAI-1 Activity (%)>
>99%

$$$$
>  <Compound>
CC(C)(C)C1CCC(CN(C(=O)C(=O)O)c2ccc(-c3ccc(OC(F)(F)F)cc3)cc2)CC1 (stereo not drawn) [Compound 680]

>  <Inhibition Rate of PAI-1 Activity (%)>
>99%

$$$$
>  <Compound>
O=C(O)/C=C/c1ccc(-c2ccc(OC(F)(F)F)cc2)cc1OC(c1ccccc1)c1ccccc1

>  <Inhibition Rate of PAI-1 Activity (%)>
>99%

$$$$
>  <Compound>
CSc1ccc(-c2ccc(OCC(=O)O)c(Oc3ccc(C(C)(C)C)cc3)c2)cc1

>  <Inhibition Rate of PAI-1 Activity (%)>
>99%

$$$$

# Inhibition Rate of PAI-1 Activity (%) measured on recombinant human PAI-1 (Homo sapiens, UniProt P05121) for item "CN(CC(=O)O)c1ccc(-c2ccc(OC(F)(F)F)cc2)cc1Oc1ccc(C(C)(C)C)cc1" = >99%

# value of Inhibition Rate of PAI-1 Activity (%), recombinant human PAI-1 (Homo sapiens, UniProt P05121), item "O=C(O)CCc1cc(-c2ccc(OC(F)(F)F)cc2)ccc1OCCCCCOc1ccc(-c2ccc(OC(F)(F)F)cc2)cc1CCC(=O)O" = 92%

Param item: "CC(C)(C)c1ccc(CCc2cc(-c3ccc(OC(F)(F)F)cc3)ccc2OCC(=O)O)cc1" ; param system: recombinant human PAI-1 (Homo sapiens, UniProt P05121); output Inhibition Rate of PAI-1 Activity (%): >99%

Value sought: Inhibition Rate of PAI-1 Activity (%), system recombinant human PAI-1 (Homo sapiens, UniProt P05121), item "CC(C)(C)c1ccc(Oc2cc(-c3ccc(Cl)cc3)ccc2OCC(=O)O)cc1" . Result: >99%

Form field, Inhibition Rate of PAI-1 Activity (%) with recombinant human PAI-1 (Homo sapiens, UniProt P05121), item "CCCCCOc1ccc(-c2ccc(OC(F)(F)F)cc2)cc1N(CCCCc1ccccc1)CC(=O)O" : 92%

Value (Inhibition Rate of PAI-1 Activity (%), recombinant human PAI-1 (Homo sapiens, UniProt P05121)) for record "CC(C)(C)c1ccc(CN(C(=O)C(=O)O)c2ccc(C(=O)Nc3ccc(OC(F)(F)F)cc3)cc2)cc1" = 64%

Field Inhibition Rate of PAI-1 Activity (%) (system: recombinant human PAI-1 (Homo sapiens, UniProt P05121)) for entry "CCCCOc1cccc(Oc2cc(-c3ccc(OC(F)(F)F)cc3)ccc2CCC(=O)O)c1" = >99%

Entry "CC(C)(C)c1ccc(Oc2cc(OCC(=O)O)cc(-c3ccc(OC(F)(F)F)cc3)c2)cc1" ; assay system recombinant human PAI-1 (Homo sapiens, UniProt P05121); Inhibition Rate of PAI-1 Activity (%) recorded at 97%

Item: "CC(C)c1ccc(Oc2cc(-c3ccc(OC(F)(F)F)cc3)ccc2/C=C/C(=O)O)cc1" | System: recombinant human PAI-1 (Homo sapiens, UniProt P05121) | Inhibition Rate of PAI-1 Activity (%): >99%

---

# Tested On: recombinant human PAI-1 (Homo sapiens, UniProt P05121)
# Construct: purchased Molecular Innovations, Inc
# Procedure Details: Test Example 1: human PAI-1 inhibitory activity (tPA fluorogenic substrate, pH 7.5 Tris buffer)
# Assay type: biochemical
# Applied Conditions: Compound Concentration 10 μM; Tris buffer
# Description: 50 mM Tris, 150 mM NaCl, 10 μg/ml BSA, 0.01% Tween80 (SIGMA-ALDRICH Corporation)
Recorded Inhibition Rate of PAI-1 Activity (%), one value per entry.
Enter your answer as a number in %; do not include the unit.

The examples below pair each entry with its known result.
>  <Compound>
COc1cc(-c2ccc(OC(F)(F)F)cc2)cc(CCC(=O)O)c1OCc1ccc(C(C)(C)C)cc1 [Compound 82]

>  <Inhibition Rate of PAI-1 Activity (%)>
59

$$$$
>  <Compound>
COc1ccc(-c2ccc(N(Cc3ccc(C(C)(C)C)cc3)C(=O)C(=O)O)cc2)cc1 [Compound 126]

>  <Inhibition Rate of PAI-1 Activity (%)>
43

$$$$
>  <Compound>
CCCCc1ccc(CN(C(=O)C(=O)O)c2ccc(-c3ccc(OC(F)(F)F)cc3)cc2)cc1 [Compound 167]

>  <Inhibition Rate of PAI-1 Activity (%)>
75

$$$$
>  <Compound>
CCCCc1ccc(-c2ccc(OCc3ccc(C(C)(C)C)cc3)c(CCC(=O)O)c2)cc1 [Compound 43]

>  <Inhibition Rate of PAI-1 Activity (%)>
66

$$$$
>  <Compound>
CC(C)Oc1ccc(N(CCCc2ccccc2)C(=O)C(=O)O)c(-c2ccc(OC(F)(F)F)cc2)c1 [Compound 239]

>  <Inhibition Rate of PAI-1 Activity (%)>
80

$$$$

# Inhibition Rate of PAI-1 Activity (%) of CC(C)(C)c1ccc(COc2ccc(-c3ccc(OC(F)(F)F)cc3)cc2C=CC(=O)O)cc1 [Compound 4] = 78

Entry CC(C)(C)c1ccc(COc2ccc(-c3ccc(C(C)(C)C)cc3)cc2/C=C/C(=O)O)cc1 [Compound 39] ; Inhibition Rate of PAI-1 Activity (%) = 56

---

# Tested On: recombinant human PAI-1 (Homo sapiens, UniProt P05121)
# Construct: purchased Molecular Innovations, Inc
# Procedure Details: Test Example 2: human PAI-1 inhibitory activity (tPA fluorogenic substrate, pH 7.4 HEPES buffer)
# Type: biochemical
# Applied Conditions: human PAI-1; compound concentration 0.3 μM
Using Inhibition Rate of PAI-1 Activity (%) as the sorting value, the categories are category 1: < 10%; category 2: ≥ 10% and < 20%; category 3: ≥ 20%

Hello team, could you let me know which band the following compound falls into: "CCC(C)(C)c1ccc(Oc2cc(-c3ccc(OC(F)(F)F)cc3)ccc2CCC(=O)O)cc1"
category 3

Lab log: CCCCC(Oc1cc(Oc2ccc(C(C)(C)C)cc2)cc(-c2ccc(OC(F)(F)F)cc2)c1)C(=O)O (stereo not shown) — assign Inhibition Rate of PAI-1 Activity (%) category
category 3

Which class holds "CC(C)[C@@H]1CC[C@@H](C)C[C@H]1Oc1ccc(-c2ccc(OC(F)(F)F)cc2)cc1N(CCCCc1ccccc1)C(=O)C(=O)O" ?
category 2

---

# Tested On: recombinant human PAI-1 (Homo sapiens, UniProt P05121)
# Construct: purchased Molecular Innovations, Inc
# Procedure Details: Test Example 1: human PAI-1 inhibitory activity (tPA fluorogenic substrate, pH 7.5 Tris buffer)
# Type: biochemical
# Applied Conditions: Compound Concentration 5 μM; Tris buffer
Measured Property: Inhibition Rate of PAI-1 Activity (%)
The response must be a number in % with no trailing unit.

Per the records, this compound ( CCC(Oc1ccc(-c2ccc(OC(F)(F)F)cc2)cc1Oc1ccc(C(C)(C)C)cc1)C(=O)O (stereo not shown) ) has Inhibition Rate of PAI-1 Activity (%) equal to 64

---

# Tested On: recombinant human PAI-1 (Homo sapiens)
# Construct: purchased Molecular Innovations, Inc
# Procedure Details: Test Example 2: human PAI-1 inhibitory activity (tPA fluorogenic substrate, pH 7.4 HEPES buffer)
# Format: biochemical
# Applied Conditions: read-out: Inhibition Rate of PAI-1 Activity (%)
Measured Property: inhibition at 3 µM

These solved cases illustrate the format of a correct answer.
>  <Compound>
CCCCCCCCCOc1cc(N(Cc2ccc(C(C)(C)C)cc2)C(=O)C(=O)O)ccc1-c1ccc(OC(F)(F)F)cc1 [Compound 388]

>  <Measured Property>
inhibition at 3 µM

>  <Result>
> 99%

$$$$
>  <Compound>
CC(C)(C)c1cccc(Oc2cc(-c3ccc(OC(F)(F)F)cc3)ccc2CCC(=O)O)c1 [Compound 336]

>  <Measured Property>
inhibition at 3 µM

>  <Result>
> 99%

$$$$
>  <Compound>
CC(C)(C)c1ccc(Oc2cc(-c3cccc(C(F)(F)F)c3)ccc2OCC(=O)O)cc1 [Compound 315]

>  <Measured Property>
inhibition at 3 µM

>  <Result>
> 99%

$$$$

Record summary for CCCCCCCCCOc1cc(-c2ccc(OC(F)(F)F)cc2)ccc1N(CCCCc1ccccc1)C(=O)C(=O)O [Compound 380] : reported inhibition at 3 µM = > 99%

Notebook: CCCCCOc1cc(-c2ccc(C(F)(F)F)cc2)ccc1N(CCCCc1ccccc1)C(=O)C(=O)O [Compound 392] , inhibition at 3 µM read as > 99%

Entry CCCCCOc1ccc(-c2ccc(OC(F)(F)F)cc2)cc1N(CCCOc1ccccc1)C(=O)C(=O)O [Compound 356] ; inhibition at 3 µM = > 99%

inhibition at 3 µM measured on CCCCCCCCCOc1cc(N(CCCCc2ccccc2)C(=O)C(=O)O)ccc1-c1ccc(OC(F)(F)F)cc1 [Compound 389] = > 99%
